ASSAYED TARGET: Tryptophan 2,3-dioxygenase (Homo sapiens)
Sequence (P48775 whole entry): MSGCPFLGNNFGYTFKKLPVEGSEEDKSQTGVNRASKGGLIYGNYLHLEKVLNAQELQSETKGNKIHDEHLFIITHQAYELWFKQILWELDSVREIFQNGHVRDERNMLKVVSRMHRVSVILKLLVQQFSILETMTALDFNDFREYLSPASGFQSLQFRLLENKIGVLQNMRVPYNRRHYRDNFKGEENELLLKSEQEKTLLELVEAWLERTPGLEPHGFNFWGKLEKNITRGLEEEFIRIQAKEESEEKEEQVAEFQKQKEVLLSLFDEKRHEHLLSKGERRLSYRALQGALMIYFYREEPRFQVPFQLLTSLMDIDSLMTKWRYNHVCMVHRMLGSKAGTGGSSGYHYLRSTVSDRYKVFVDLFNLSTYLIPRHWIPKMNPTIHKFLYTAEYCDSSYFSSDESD
METHOD DESCRIPTION: Inhibition of TDO (unknown origin)
# IC50 per entry

{"columns": ["COMPOUND", "ASSAYED TARGET", "IC50"],
 "data": [
  ["O=C1CC(c2c[nH]c3ccc(F)cc23)C(=O)N1 (configuration not stated)", "Tryptophan 2,3-dioxygenase (Homo sapiens)", "> 10 µM"],
  ["NS(=O)(=O)NCCNc1nonc1C(=NO)Nc1ccc(F)c(Br)c1", "Tryptophan 2,3-dioxygenase (Homo sapiens)", "> 10 µM"]
]}

---

METHOD DESCRIPTION: Clearance in rat liver microsomes
Format: ADME, Microsome
# CLhep predicted per entry
RECORDED ENDPOINT: CLhep predicted (mL/min/kg)

{"columns": ["SMILES INPUT", "ENDPOINT VALUE"],
 "data": [
  ["CS(=O)(=O)c1ccc2c(c1)[C@@H](O)[C@H]([C@H]1c3ccccc3-c3cncn31)CC2", 33],
  ["Cn1ncc2c1CC[C@@H]([C@H]1c3ccccc3-c3cncn31)[C@@H]2O", 19],
  ["O[C@@H]1c2cnccc2CC[C@H]1[C@H]1c2ccccc2-c2cncn21", 38],
  ["O[C@@H]1c2nonc2CC[C@H]1[C@H]1c2ccccc2-c2cncn21", 33],
  ["O[C@@H]1CCCC[C@H]1[C@H]1c2ccccc2-c2cncn21", 37],
  ["O[C@@H]1CCC[C@H]1[C@H]1c2ccccc2-c2cncn21", 35],
  ["O[C@@H]1CC[C@H]1[C@H]1c2ccccc2-c2cncn21", 27],
  ["NC(=O)c1ccc2c(c1)[C@@H](O)[C@H]([C@H]1c3ccccc3-c3cncn31)CC2", 26],
  ["O[C@@H]1c2ccncc2CC[C@H]1[C@H]1c2ccccc2-c2cncn21", 46],
  ["CP(C)(=O)c1ccc2c(c1)[C@@H](O)[C@H]([C@H]1c3ccccc3-c3cncn31)CC2", 19]
]}
